Reference for the values: PubChem BioAssay (NCI)

Assignment: determine reported TGI for the given compounds.
# Test system: HT29 colon
# methodDescription: NCI tumour cell line growth inhibition, 48 h

Known results for compounds:
[N-]=[N+]=Nc1cc(=O)[nH]c2ccccc12
> 100 µM
O=C(CC(=O)N1N=C(c2ccccc2)C(N=Nc2ccc(S(=O)(=O)CCOS(=O)(=O)O)cc2)C1=O)Nc1ccc(Cl)cc1 (stereo not drawn)
> 100 µM

Then this compound:
Req: Any idea what its TGI is? The compound is CC(C)(C)NCC(O)c1ccccc1Cl (stereo not drawn)
Resp: > 100 µM

---

# Tested on: T-47D breast
# methodDescription: NCI tumour cell line growth inhibition, 48 h
property: TGI

Example compounds with recorded TGI:
CN1C(=O)N(C)C2C1NC(=S)N2/N=C/C=C/c1ccccc1[N+](=O)[O-] (stereo not drawn)
> 100 µM
N#Cc1c(/C=C/c2ccccc2)c2c([nH]c1=S)CCCCC2
> 100 µM

Req: Reported TGI for COC(=O)C1=C(C)NC(=S)NC1c1ccc(N(CCCl)CCCl)cc1Cl (stereo not drawn) : what is it?
Resp: > 55.4 µM

---

# System: SK-OV-3 ovarian
# methodDescription: NCI tumour cell line growth inhibition, 48 h
Exercise: state measured TGI for each of the compounds provided.

Before answering, review these 2 worked examples.
CSc1nnnc2ccccc12
> 100 µM
COP(=O)(CP(=O)(OC)OCCC(C)CCC=C(C)C)OC (stereo not drawn)
> 100 µM

Shift focus to the following entry.
Req: Could you tell me which TGI is on file for COc1c(C(N)=O)cc(-c2ccc(Cl)cc2)cc1-c1ccc(S(N)(=O)=O)cc1 ?
Resp: > 25 µM

---

For each record, write down the corresponding TGI.
# System: A498 renal
# methodDescription: NCI tumour cell line growth inhibition, 48 h

O=S(=O)(O)c1ccc(O)c(N=Nc2c(O)ccc3ccccc23)c1
> 100 µM

Batch lookup, TGI per entry.
1. OC(c1cc(C(F)(F)F)nc2c(Cl)cc(Cl)cc12)C1CCCCN1 (centres undefined)
2. Nc1nc2cc(Cl)ccc2n1N
3. COc1ccc(C2N(c3ccc(C)c(N=C=O)c3)C(=O)N3C(c4ccc(OC)cc4)N(c4ccc(C)c(N=C=O)c4)C(=O)N23)cc1 (centres undefined)
4. CCOC(=O)c1ccc2nc3n(c2c1)C(c1c(F)cccc1F)SC3 (centres undefined)
5. CCOP(=O)(OCC)/C(=C/n1c(=S)[nH]c2ccccc21)C(=O)OC

Resp:
1: > 51.4 µM; 2: > 100 µM; 3: > 100 µM; 4: > 100 µM; 5: > 100 µM

---

Field: TGI. Provide a value for each of the compounds that follow.
# Tested on: HS 578T breast
# methodDescription: NCI tumour cell line growth inhibition, 48 h

Examples with their reported TGI follow.
CCC[N+](C)(C)CCCNC(=O)c1c(O)c2ccccc2[nH]c1=O
> 100 µM
CCOC(=O)C1=C(Nc2ccc(OC)cc2)C(N)=NC1=N
> 100 µM
CN1C(=O)N(C)C2C1NC(=S)N2/N=C/C=C/c1ccccc1[N+](=O)[O-] (centres undefined)
> 100 µM
COc1cc(C(c2ccccc2)N2C(=O)CC[C@H]2C(=O)O)cc(OC)c1OC (some centres undefined)
> 100 µM

Batch request: TGI for each of the following compounds.
1. OC(c1cc(C(F)(F)F)nc2c(Cl)cc(Cl)cc12)C1CCCCN1 (centres undefined)
2. C1=CC2C(C3CN(c4ccccc4)N=C13)C1C3C4C=CC21C=CC43 (centres undefined)
3. c1ccc2c(c1)nnn2C1CCCCO1 (centres undefined)
4. Cc1cc2nc3c(C#N)c(C)c(CCCl)c(Cl)n3c2cc1C

Resp:
["> 48.4 µM", "> 100 µM", "> 100 µM", "> 29.6 µM"]

List reported TGI for each of these compounds:
1. O=c1oc2ccccc2c(O)c1C(c1ccc(OCc2ccccc2)cc1)c1c(O)c2ccccc2oc1=O
2. COC(=O)C1=C(C)NC(C)=C(C(=O)OC)C1c1cccc(/[N+]([O-])=C/c2ccccc2)c1
3. CC1(C)OCC2OC(n3cnc4c(N)nc(Cl)nc43)C(OS(C)(=O)=O)C2O1 (centres undefined)
4. COC(=O)/C=C1\C(CO[Si](C)(C)C(C)(C)C)OC(n2cc(C)c(=O)n(C)c2=O)C1O[Si](C)(C)C(C)(C)C (centres undefined)
5. COc1cc2[nH]c3c(c2cc1OC)CCN[C@@]31CC[C@@]2(CC3c4c(cc(OC)c(O)c42)CCN3C)C[C@@H]1OC (some centres undefined)
6. Cc1ccc(/C=c2\c(=O)[nH]c3nc4ccccc4c(=O)n23)cc1
7. N#Cc1ccc(-c2ccc(Cl)cc2)n(C2OC(CO)C(O)C(O)C2O)c1=S (centres undefined)

Resp:
1: > 100 µM; 2: > 100 µM; 3: > 100 µM; 4: > 100 µM; 5: > 52.5 µM; 6: > 100 µM; 7: > 100 µM
